Entry source: PubChem BioAssay AID2685

- Procedure Summary: qHTS Assay for Lipid Storage Modulators in Drosophila S3 Cells;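 as to cell number change: cells counted by Cell Tracker Red CMTPX staining in the red channel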
- Test Context: BODIPY lipid droplet fluorescence, 18-24 h, cells fed with added oleic acid; measured here: cell count max response
The whole screen tested about 320,000 compounds, of which about 2,100 (0.66%) were called active. Not shown: some 53% with an inconclusive outcome. The entries come from a sample that favours actives as a whole.
Measurement Name: cell number change (%)
# unit: % | format: bare number

The examples below pair each entry with its known result.
- Compound: "COc1ccc(S(=O)(=O)N2CCOCC2)cc1NC(=O)CSc1nnc2c(n1)[nH]c1ccccc12"
  Unit Tag: "%"
  cell number change: -0.0197
- Compound: "CCn1c(SCc2cc(=O)n3ccsc3n2)nc2ccccc21"
  Unit Tag: "%"
  cell number change: 0.881
- Compound: "Cc1nnc(SCC(=O)N(C)c2c(N)n(Cc3ccccc3)c(=O)[nH]c2=O)n1Cc1ccccc1"
  Unit Tag: "%"
  cell number change: 4.04
- Compound: "O=C(CCN1C(=O)/C(=C\\c2ccccc2F)SC1=S)N1CCCCC1"
  Unit Tag: "%"
  cell number change: 13.6
- Compound: "COc1ccc(Cc2c(Cl)ncnc2Cl)cc1"
  Unit Tag: "%"
  cell number change: -13.7

Task: Quick one: cell number change for O=C1/C(=C/c2ccccc2)SC(=S)N1CC(=O)N1CCCCC1c1cccnc1 (configuration not stated) ?
Result: 6.85

Task: Quick one: cell number change for COc1ccc(-n2cccc2/C=C2\C(=N)N3N=C(c4ccco4)SC3=NC2=O)cc1 ?
Result: -5.47

Task: Quick one: cell number change for COCCOc1ccc(C(F)(F)F)cc1NC(=O)COC(=O)c1c(C)noc1C ?
Result: -13.3

Task: Quick one: cell number change for COc1cc(CO)cc(Br)c1OCC(=O)O ?
Result: 9.61

Task: Quick one: cell number change for COc1ccc(NS(=O)(=O)c2ccc3nc(COc4ccc5ccccc5c4)[nH]c3c2)cc1 ?
Result: -9.6

Task: Quick one: cell number change for Cc1nc2c(sc3nc(N4CCOCC4)c4c(c32)CC(C)(C)OC4)c(-c2ccc(Cl)cc2)c1C(=O)O ?
Result: -7.08

----------
- Procedure Summary: qHTS Assay for Lipid Storage Modulators in Drosophila S3 Cells;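 as to cell number change: cells counted by Cell Tracker Red CMTPX staining in the red channel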
- Test Context: BODIPY lipid droplet fluorescence, 18-24 h, cells fed with added oleic acid; measured here: cell count max response
In all, about 320,000 compounds went through this assay and about 2,100 (0.66%) were called active. Inconclusive results (about 53%) are left out. Shown is part of a subset that was picked to be rich in actives.
A collection of molecules and their measured cell number change
# unit: % | format: bare number

- Molecule: "CC(C)c1ccc(/C=N/NC(=O)CC(=O)NC2CCCCC2)cc1"
  cell number change, %: 0.119
- Molecule: "CC(Oc1cccc(Cl)c1)C(=O)Nc1ccccc1N1CCCCC1 (stereo unspecified)"
  cell number change, %: 7.85
- Molecule: "CCOC(=O)C(=CNc1ccc(C(F)(F)F)cc1)C(=O)OCC"
  cell number change, %: 11.9

Task: Quick one: cell number change for COc1cc2c(cc1OC)C(c1ccc3c(c1)OCO3)C1=C(CC(C)(C)CC1=O)N2 (stereo unspecified) ?
Result: -17.2

Task: Quick one: cell number change for CCOC(=O)C(NC(=O)c1ccc(F)cc1)(Nc1sc2c(c1C(N)=O)CCC2)C(F)(F)F (stereo unspecified) ?
Result: -0.472

Task: Quick one: cell number change for COc1cccc2cc(C(=O)OCc3ccccc3)c(=O)oc12 ?
Result: -24.9

Task: Quick one: cell number change for CCC(=O)NC(=S)Nc1ccc(NC(=O)c2ccc(Br)o2)cc1 ?
Result: -10.2

Task: Quick one: cell number change for CC(C(=O)N1CCc2ccccc21)N1CCN(c2ccccn2)CC1 (stereo unspecified) ?
Result: 18

Task: Quick one: cell number change for O=C(NCCc1cnn(-c2ccccc2)c1)c1cc(COc2c(F)cccc2F)on1 ?
Result: 0.269

Task: Quick one: cell number change for NC(=O)CS(=O)(=O)c1ccc(Cl)cc1 ?
Result: 0.328

Task: Quick one: cell number change for Cc1ccccc1NC(=O)CCc1nnc2ccc(N3CCC4(CC3)OCCO4)nn12 ?
Result: 15.5

Task: Quick one: cell number change for Cn1cnc(S(=O)(=O)N2CCN(c3cccc(C(F)(F)F)c3)CC2)c1 ?
Result: 3.98

Task: Quick one: cell number change for Cc1cccc([C@@H]2[C@@H]3C(=O)N(Cc4ccccc4)C(=O)[C@@H]3[C@]3(Cc4ccccc4)C(=O)N(c4ccc(C(F)(F)F)cc4)C(=O)N23)c1 ?
Result: 5.02

Task: Quick one: cell number change for COc1cc(C(=O)O)ccc1OCC(=O)N1CCOCC1 ?
Result: -12

Task: Quick one: cell number change for CN1CCN(NC(=O)Nc2ccc(F)cc2)CC1 ?
Result: 17.8

Task: Quick one: cell number change for CCCCOc1ccc(C(=O)N2CCNC(=O)C2CC(=O)OC(C)C)cc1 (stereo unspecified) ?
Result: 7.09

Task: Quick one: cell number change for CCN1CCN(c2ccccc2NC(=O)C(C)Oc2ccc(C(C)=O)cc2)CC1 (stereo unspecified) ?
Result: -13.7

Task: Quick one: cell number change for CN(C)C(=O)C(OC(=O)c1ccc2ccccc2n1)c1ccccc1 (stereo unspecified) ?
Result: 16.5

Task: Quick one: cell number change for COc1cccc2cc(C(=O)Oc3ccccc3)c(=O)oc12 ?
Result: -11.3

Task: Quick one: cell number change for COc1cccc(C2=NOC(C(=O)N3CCN(Cc4ccccc4)CC3)C2)c1OC (stereo unspecified) ?
Result: -0.697

Task: Quick one: cell number change for CC(C(=O)N1CCc2ccccc21)N1CCN(Cc2ccc(Cl)cc2)CC1 (stereo unspecified) ?
Result: -3.17

Task: Quick one: cell number change for COCC(C)NS(=O)(=O)c1ccc(C(=O)NCCCn2ccc3ccccc32)cc1 (stereo unspecified) ?
Result: -2.38

Task: Quick one: cell number change for CN(C)C(=O)C(OC(=O)c1ccc2c(c1)CCCC2)c1ccccc1 (stereo unspecified) ?
Result: 15.3

Task: Quick one: cell number change for CC(NC(=O)NC(N)=O)(C(F)(F)F)C(F)(F)F ?
Result: 2.2

----------
- Procedure Summary: qHTS Assay for Lipid Storage Modulators in Drosophila S3 Cells
- Test Context: BODIPY lipid droplet fluorescence, 18-24 h, cells fed with added oleic acid; series mostly up to 46.1 µM
In all, about 320,000 compounds went through this assay and about 2,100 (0.66%) were called active. Another 53% or so got no clear call; they are omitted. The call rests on the fitted dose curve; in most records, active means well fitted inhibition curve with a large enough effect in the signal ratio, with a control signal flat (not every such curve was filed as active); inconclusive means small, poorly fitted or top-dose-only effect, or effect the other way, or a change in a side signal; inactive means flat fitted curve, though single readings scatter; the % refers to the signal ratio. This excerpt belongs to a sample that is enriched for actives.
Hi there, use one of these labels in your reply, thanks! yes (1) for active, no (0) for inactive

Worked set:
- Molecule: "COc1cccc(C(=O)OC2CCCN(C)C2)c1 (stereo not given)"
  Group Label: "yes (1)"
- Molecule: "O=C(Cc1ccccc1)Nc1nnc(-c2cccc([N+](=O)[O-])c2)s1"
  Group Label: "no (0)"
- Molecule: "O=C(c1ccc(Cl)cc1)c1ccc(CN2C(=O)c3ccccc3C2=O)o1"
  Group Label: "no (0)"
- Molecule: "O=C(OCCOCCN=C1NS(=O)(=O)c2ccccc21)c1ccncc1"
  Group Label: "no (0)"
- Molecule: "O=C(OCCCN=C1NS(=O)(=O)c2ccccc21)C1CC(=O)N(c2ccc(Cl)cc2)C1 (stereo not given)"
  Group Label: "no (0)"

Task: Could you check what this test reported for COc1ccc(/C=N/NC(=O)CCN2CCCCC2c2cccnc2)cc1Cn1cc([N+](=O)[O-])cn1 (stereo not given) ?
Result: no (0)

Task: Could you check what this test reported for O=C(CN1C(=O)c2ccccc2C1=O)OCCOCCN=C1NS(=O)(=O)c2ccccc21 ?
Result: no (0)

Task: Could you check what this test reported for O=C(OCCOCCN=C1NS(=O)(=O)c2ccccc21)c1ccc(F)cc1 ?
Result: yes (1)

Task: Could you check what this test reported for C/C(=C\c1cc2ccccc2o1)C1Nc2cccc3cccc(c23)N1 ?
Result: no (0)

Task: Could you check what this test reported for O=C(OCCCN=C1NS(=O)(=O)c2ccccc21)c1ccc(F)cc1 ?
Result: no (0)

----------
A collection of compounds and their measured cell number change
- Procedure Summary: qHTS Assay for Lipid Storage Modulators in Drosophila S3 Cells;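 as to cell number change: cells counted by Cell Tracker Red CMTPX staining in the red channel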
- Test Context: BODIPY lipid droplet fluorescence, 18-24 h, cells fed with added oleic acid; measured here: cell count max response
Screen size: about 320,000 compounds; about 2,100 (0.66%) were called active. About 53% were inconclusive and are not listed. The sample as a whole holds a higher share of actives than the screen did.

The examples below pair each entry with its known result.
- Compound: "Nc1cc(OC(=O)c2c(F)cccc2Cl)nn1S(=O)(=O)c1ccccc1"
  cell number change: "-4.17%"
- Compound: "C=CCN1C(=O)C(CC(=O)NCC)SC1=Nc1ccccc1OC (stereo not given)"
  cell number change: "-0.552%"
- Compound: "Cc1ccc(S(=O)(=O)n2nc(OC(=O)c3c(F)cccc3Cl)cc2N)cc1"
  cell number change: "5.65%"
- Compound: "O=C(CC1SC(=Nc2ccc(OC(F)F)cc2)N(CCC2=CCCCC2)C1=O)Nc1ccccc1F (stereo not given)"
  cell number change: "-16.7%"

// moving on: another record for cell number change
Task: Quick one: cell number change for CCOc1ccccc1N=C1SC(CC(=O)Nc2ccc(OC)cc2OC)C(=O)N1CCC1=CCCCC1 (stereo not given) ?
Result: -18.8%
